- setupConditions: in isobutanol, 318.15 K
quantityKind: solubility (mole fraction)

In [3]: df
Out[3]:
                compoundsmiles  observedvalue
0  CC(=O)N[C@@H](CC(C)C)C(=O)O         0.0425

---

- setupConditions: in acetonitrile, 283.15 K
quantityKind: solubility (mole fraction)

>>> print(df.to_string())
                compoundsmiles  observedvalue
0  CC(=O)N[C@@H](CC(C)C)C(=O)O       0.000712

---

- setupConditions: in isopropanol, 313.15 K
quantityKind: solubility (mole fraction)

                compoundsmiles                quantitykind  observedvalue
0  CC(=O)N[C@@H](CC(C)C)C(=O)O  solubility (mole fraction)         0.0405

---

- setupConditions: in methyl acetate, 308.15 K
quantityKind: solubility (mole fraction)

>>> df
                compoundsmiles  observedvalue
0  CC(=O)N[C@@H](CC(C)C)C(=O)O        0.00259

---

- setupConditions: in isobutanol, 323.15 K
quantityKind: solubility (mole fraction)

>>> df
                compoundsmiles  observedvalue
0  CC(=O)N[C@@H](CC(C)C)C(=O)O         0.0478

---

- setupConditions: in n-propanol, 323.15 K
quantityKind: solubility (mole fraction)

In [3]: df
Out[3]:
                compoundsmiles                quantitykind  observedvalue
0  CC(=O)N[C@@H](CC(C)C)C(=O)O  solubility (mole fraction)         0.0541

---

- setupConditions: in ethyl acetate, 283.15 K
quantityKind: solubility (mole fraction)

>>> df
                compoundsmiles  observedvalue
0  CC(=O)N[C@@H](CC(C)C)C(=O)O        0.00103

---

- setupConditions: in isopropanol, 323.15 K
quantityKind: solubility (mole fraction)

>>> print(df.to_string())
                compoundsmiles  observedvalue
0  CC(=O)N[C@@H](CC(C)C)C(=O)O         0.0526

---

- setupConditions: in ethyl acetate, 323.15 K
quantityKind: solubility (mole fraction)

                compoundsmiles  observedvalue
0  CC(=O)N[C@@H](CC(C)C)C(=O)O        0.00374

---

- setupConditions: in acetone, 288.15 K
quantityKind: solubility (mole fraction)

                compoundsmiles                quantitykind  observedvalue
0  CC(=O)N[C@@H](CC(C)C)C(=O)O  solubility (mole fraction)        0.00434

---

- setupConditions: in ethyl acetate, 308.15 K
quantityKind: solubility (mole fraction)

>>> print(df.to_string())
                compoundsmiles                quantitykind  observedvalue
0  CC(=O)N[C@@H](CC(C)C)C(=O)O  solubility (mole fraction)        0.00243

---

- setupConditions: in n-butanol, 283.15 K
quantityKind: solubility (mole fraction)

>>> df
                compoundsmiles                quantitykind  observedvalue
0  CC(=O)N[C@@H](CC(C)C)C(=O)O  solubility (mole fraction)          0.017

---

- setupConditions: in methanol, 298.15 K
quantityKind: solubility (mole fraction)

>>> df
                compoundsmiles  observedvalue
0  CC(=O)N[C@@H](CC(C)C)C(=O)O         0.0456

---

- setupConditions: in isopropanol, 283.15 K
quantityKind: solubility (mole fraction)

>>> print(df.to_string())
                compoundsmiles                quantitykind  observedvalue
0  CC(=O)N[C@@H](CC(C)C)C(=O)O  solubility (mole fraction)         0.0177

---

- setupConditions: in acetonitrile, 308.15 K
quantityKind: solubility (mole fraction)

                compoundsmiles  observedvalue
0  CC(=O)N[C@@H](CC(C)C)C(=O)O        0.00198

---

- setupConditions: in sec-butanol, 293.15 K
quantityKind: solubility (mole fraction)

>>> df
                compoundsmiles  observedvalue
0  CC(=O)N[C@@H](CC(C)C)C(=O)O         0.0241

---

- setupConditions: in n-propyl acetate, 313.15 K
quantityKind: solubility (mole fraction)

>>> df
                compoundsmiles  observedvalue
0  CC(=O)N[C@@H](CC(C)C)C(=O)O        0.00249

---

- setupConditions: in n-propanol, 288.15 K
quantityKind: solubility (mole fraction)

                compoundsmiles  observedvalue
0  CC(=O)N[C@@H](CC(C)C)C(=O)O         0.0223

---

- setupConditions: in isopropanol, 293.15 K
quantityKind: solubility (mole fraction)

                compoundsmiles                quantitykind  observedvalue
0  CC(=O)N[C@@H](CC(C)C)C(=O)O  solubility (mole fraction)         0.0238

---

- setupConditions: in n-propanol, 283.15 K
quantityKind: solubility (mole fraction)

>>> print(df.to_string())
                compoundsmiles  observedvalue
0  CC(=O)N[C@@H](CC(C)C)C(=O)O         0.0196

---

- setupConditions: in ethanol, 288.15 K
quantityKind: solubility (mole fraction)

>>> df
                compoundsmiles                quantitykind  observedvalue
0  CC(=O)N[C@@H](CC(C)C)C(=O)O  solubility (mole fraction)         0.0278

---

- setupConditions: in methanol, 303.15 K
quantityKind: solubility (mole fraction)

                compoundsmiles                quantitykind  observedvalue
0  CC(=O)N[C@@H](CC(C)C)C(=O)O  solubility (mole fraction)         0.0514

---

- setupConditions: in acetone, 293.15 K
quantityKind: solubility (mole fraction)

>>> print(df.to_string())
                compoundsmiles  observedvalue
0  CC(=O)N[C@@H](CC(C)C)C(=O)O        0.00525

---

- setupConditions: in n-butanol, 308.15 K
quantityKind: solubility (mole fraction)

>>> df
                compoundsmiles  observedvalue
0  CC(=O)N[C@@H](CC(C)C)C(=O)O         0.0331

---

- setupConditions: in n-propanol, 313.15 K
quantityKind: solubility (mole fraction)

In [3]: df
Out[3]:
                compoundsmiles  observedvalue
0  CC(=O)N[C@@H](CC(C)C)C(=O)O         0.0424

---

- setupConditions: in isobutanol, 303.15 K
quantityKind: solubility (mole fraction)

                compoundsmiles  observedvalue
0  CC(=O)N[C@@H](CC(C)C)C(=O)O         0.0283

---

- setupConditions: in ethyl acetate, 298.15 K
quantityKind: solubility (mole fraction)

>>> df
                compoundsmiles  observedvalue
0  CC(=O)N[C@@H](CC(C)C)C(=O)O        0.00178

---

- setupConditions: in acetone, 283.15 K
quantityKind: solubility (mole fraction)

                compoundsmiles                quantitykind  observedvalue
0  CC(=O)N[C@@H](CC(C)C)C(=O)O  solubility (mole fraction)        0.00363

---

- setupConditions: in methyl acetate, 323.15 K
quantityKind: solubility (mole fraction)

In [3]: df
Out[3]:
                compoundsmiles                quantitykind  observedvalue
0  CC(=O)N[C@@H](CC(C)C)C(=O)O  solubility (mole fraction)        0.00453

---

- setupConditions: in acetonitrile, 323.15 K
quantityKind: solubility (mole fraction)

In [3]: df
Out[3]:
                compoundsmiles  observedvalue
0  CC(=O)N[C@@H](CC(C)C)C(=O)O        0.00335

---

- setupConditions: in ethyl acetate, 313.15 K
quantityKind: solubility (mole fraction)

In [3]: df
Out[3]:
                compoundsmiles                quantitykind  observedvalue
0  CC(=O)N[C@@H](CC(C)C)C(=O)O  solubility (mole fraction)         0.0028

---

- setupConditions: in acetone, 313.15 K
quantityKind: solubility (mole fraction)

>>> df
                compoundsmiles  observedvalue
0  CC(=O)N[C@@H](CC(C)C)C(=O)O         0.0106

---

- setupConditions: in isobutanol, 293.15 K
quantityKind: solubility (mole fraction)

>>> print(df.to_string())
                compoundsmiles                quantitykind  observedvalue
0  CC(=O)N[C@@H](CC(C)C)C(=O)O  solubility (mole fraction)         0.0206
